Data origin, for the record: ChEMBL document CHEMBL3632484

Entries annotated with measured IC50
Protocol description: Antineuroinflammatory activity in LPS-primed rat neonatal microglia assessed as inhibition of PMA-stimulated release of O2- after 70 mins
Format: functional

- [C-]#[N+][C@@]12CCC(=C)[C@H]3[C@H](CC(C)(C)NC(=O)CNC(=O)c4ccncc4)C[C@H](C)[C@@H](CC[C@@H]1C)[C@@H]32: > 10 µM

For this compound ( [C-]#[N+][C@@]12CCC(=C)[C@H]3[C@H](CC(C)(C)NC(=O)CN(CCNc4ccnc5cc(Cl)ccc45)C(C)=O)C[C@H](C)[C@@H](CC[C@@H]1C)[C@@H]32 ), measured IC50 is 1.7 µM

For this compound ( [C-]#[N+]C(C)(C)C[C@@H]1C[C@H](C)[C@H]2CC[C@H](C)[C@@]3([N+]#[C-])CCC(=C)[C@@H]1[C@H]23 ), measured IC50 is > 10 µM

For this compound ( [C-]#[N+][C@@]12CCC(=C)[C@H]3[C@H](CC(C)(C)NC(=O)C(c4ccccc4)N(CCC(C)C)C(=O)c4ccncc4)C[C@H](C)[C@@H](CC[C@@H]1C)[C@@H]32 (mixture of isomers) ), measured IC50 is > 10 µM

For this compound ( [C-]#[N+][C@@]12CCC(=C)[C@H]3[C@H](CC(C)(C)NC(=O)CN(CCC(C)C)C(=O)c4ccncc4)C[C@H](C)[C@@H](CC[C@@H]1C)[C@@H]32 ), measured IC50 is > 10 µM

For this compound ( [C-]#[N+][C@@]12CCC(=C)[C@H]3[C@H](CC(C)(C)NC(=O)CN(CCNc4ccnc5cc(Cl)ccc45)C(=O)c4ccncc4)C[C@H](C)[C@@H](CC[C@@H]1C)[C@@H]32 ), measured IC50 is 5 µM
